Biological target: Relaxin-3 receptor 1 (Homo sapiens)
Sequence (Q9NSD7 whole entry): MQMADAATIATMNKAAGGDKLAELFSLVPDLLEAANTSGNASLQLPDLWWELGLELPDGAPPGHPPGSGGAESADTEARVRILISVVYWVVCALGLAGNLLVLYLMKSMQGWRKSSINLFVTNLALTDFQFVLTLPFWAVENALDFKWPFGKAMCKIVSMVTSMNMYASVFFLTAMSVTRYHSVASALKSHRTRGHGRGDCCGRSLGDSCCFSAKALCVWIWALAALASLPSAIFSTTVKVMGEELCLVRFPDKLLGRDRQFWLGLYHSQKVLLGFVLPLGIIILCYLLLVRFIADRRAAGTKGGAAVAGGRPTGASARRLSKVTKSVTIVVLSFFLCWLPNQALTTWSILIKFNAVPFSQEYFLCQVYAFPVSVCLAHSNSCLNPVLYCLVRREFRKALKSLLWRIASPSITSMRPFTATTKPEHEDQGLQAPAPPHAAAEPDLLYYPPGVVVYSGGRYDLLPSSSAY
Experiment: Antagonist activity at human RXFP3 expressed in CHO-K1 cells assessed as inhibition of relaxin-3 stimulated ERK1/2 phosphorylation preincubated for 15 mins followed by relaxin-3 addition for 5 mins
Assay type: functional, cell-based
value kind: IC50
Include the unit after the number when you answer.

O=C(Nc1ccc(-c2nc(-c3ccc(Cl)cc3)no2)cc1)C1CC(=O)N(Cc2ccco2)C1 (stereo unspecified) has a reported IC50 of 13.9 µM
